Listed here: items and their measured IC50.
- target_under_test: FAP-expressing human WI-38 fibroblasts (Homo sapiens, UniProt Q12884)
- Construct: FAP-expressing human WI-38 fibroblasts (ECACC) were cultured in EMEM; host or cells: WI-38 human fibroblasts
- Sequence (Q12884 1-760): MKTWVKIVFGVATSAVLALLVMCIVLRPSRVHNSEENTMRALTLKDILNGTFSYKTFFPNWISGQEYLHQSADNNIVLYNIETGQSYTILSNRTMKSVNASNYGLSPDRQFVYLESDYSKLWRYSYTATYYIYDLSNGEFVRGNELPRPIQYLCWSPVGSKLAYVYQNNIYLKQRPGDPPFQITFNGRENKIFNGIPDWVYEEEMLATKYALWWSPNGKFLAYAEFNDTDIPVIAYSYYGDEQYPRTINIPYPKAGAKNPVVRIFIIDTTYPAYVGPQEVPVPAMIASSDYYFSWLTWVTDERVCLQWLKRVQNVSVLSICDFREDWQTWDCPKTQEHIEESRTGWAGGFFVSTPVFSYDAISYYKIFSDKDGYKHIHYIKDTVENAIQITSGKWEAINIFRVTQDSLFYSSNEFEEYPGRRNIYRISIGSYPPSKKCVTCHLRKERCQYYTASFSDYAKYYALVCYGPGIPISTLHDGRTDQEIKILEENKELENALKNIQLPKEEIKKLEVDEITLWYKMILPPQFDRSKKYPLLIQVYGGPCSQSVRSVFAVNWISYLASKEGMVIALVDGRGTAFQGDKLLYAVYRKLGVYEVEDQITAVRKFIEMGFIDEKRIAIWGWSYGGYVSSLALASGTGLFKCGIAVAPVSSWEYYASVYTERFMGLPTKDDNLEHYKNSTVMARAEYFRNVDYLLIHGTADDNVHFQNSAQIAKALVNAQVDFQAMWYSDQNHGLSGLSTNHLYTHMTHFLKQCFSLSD
- procedure_text: Competitive FACS binding assay
- test_settings: pIC50 Category (FACS), competition with 3 nM Cy5-labeled compound, 4° C., 1 hour
- Protocol: Cells were analyzed in an Attune NxT flow cytometer. […]
Numbered stars: 1 amine (or outer) side, 2 acyl side, 3 side chain; on linkers, the order of the positions; unused ones are H or OH. Bridge positions count the residues as written; N and C are the ends. Square brackets hold non-standard residues; d marks the D form. Peptide text beside a SMILES is read from it. * marks the point of attachment. mXylylene = c1cc(C[*:1])cc(C[*:2])c1; X18 = NCCNCC(CNCCN)C(=O)*; Nle = CCCC[C@H](N)C(=O)O; AEEA = NCCOCCOCC(=O)O

[
  {
    "compound": "CCCCCC(=O)N[C@H]1CSCc2cc(CSCCNC(=O)CCC(=O)NCCCOCCOCCOCCCNC(=O)CN(CCN(CCN(CC(=O)O)CC(=O)O)CC(=O)O)CC(=O)O)cc(c2)CSC[C@@H](C(=O)O)NC(=O)[C@H](Cc2ccccc2)NC(=O)[C@H](CCC(N)=O)NC(=O)[C@H]([C@@H](C)O)NC(=O)[C@@H]2CCCN2C(=O)[C@@H]2CCCN2C1=O [3BP-4352]",
    "target_under_test": "FAP-expressing human WI-38 fibroblasts (Homo sapiens, UniProt Q12884)",
    "IC50": "100 to 794 nM"
  }
]

Next, consider the following compound.
Kindly note the recorded IC50 for CCCC[C@H](NC(=O)COCCOCCNC(=O)C(CNCCN)CNCCN)C(=O)N[C@H]1CSCc2cccc(c2)CSC[C@@H](C(=O)O)NC(=O)[C@H](Cc2ccccc2)NC(=O)[C@H](CCC(=O)O)NC(=O)[C@H]([C@@H](C)O)NC(=O)[C@@H]2CCCN2C(=O)[C@@H]2CCCN2C1=O [3BP-4228] ({X18-AEEA}-[Nle]CPPTEFC-OH; linker 2-8 via mXylylene) , which is > 1000 nM
